- Tested on: SAUR 9218
- ASSAY_TEXT: MIC Test Method, standard agar dilution
- Assay type: cell-based
- EXPERIMENTAL_CONDITIONS: agar dilution, Mueller Hinton agar, incubated overnight at 35° C.; lowest concentration that inhibits visible growth; read-out: SAUR 9218 MIC
- Procedure: The in vitro MiCs of test compounds were determined by a standard agar dilution method. A stock drug solution of each analog was prepared in the preferred solvent, usually DMSO:H2O (1:3). Serial 2-fold dilutions of each sample are made using 1.0 ml aliquots of sterile distil]ed water. […] Following incubation the Minimum Inhibitory Concentration (MIC μg/ml), the lowest concentration of drug that inhibits visible growth of the organism, was read and recorded.
PARAMETER_MEASURED: MIC (µg/mL)
Enter your answer as a number in µg/mL; do not include the unit.

Input: // map CCCC(C)Oc1ccccc1-c1cc(C(=O)Nc2ccc(C#N)cc2C(=O)O)no1 (centres unmarked) to recorded MIC (system: SAUR 9218)
Output: 0.125

Input: What measured MIC is associated with N#Cc1ccc(NC(=O)c2cc(-c3ccccc3)no2)c(C(=O)O)c1 on SAUR 9218?
Output: 0.5

Input: Request body: readout MIC, system SAUR 9218, query Cn1c(C(=O)Nc2ccc(Br)cc2C(=O)O)cc2cccc(S(=O)(=O)c3ccccc3)c21 . Return the value.
Output: 0.125

Input: # query: MIC | item CC(C)n1c(C(=O)Nc2ccc(C#N)cc2C(=O)O)cc2ccccc21 | system: SAUR 9218
Output: 2

###

- System: SAUR 9218
- ASSAY_TEXT: MIC Test Method, standard agar dilution
- Format: cell-based
- EXPERIMENTAL_CONDITIONS: agar dilution, Mueller Hinton agar, incubated overnight at 35° C.; lowest concentration that inhibits visible growth; read-out: SAUR 9218 MIC
For each of the compounds below, state its log10 of MIC.
Scale type: logarithmic (base 10). Underlying MIC unit: µg/mL.

Input: Please report the recorded log10 of MIC for N#Cc1ccc(NC(=O)c2nc(-c3ccccc3)cs2)c(C(=O)O)c1 .
Output: 0.90

Input: Need log10 of MIC, item N#Cc1ccc(NC(=O)c2cc(CO)on2)c(C(=O)O)c1
Output: 0.90

Input: Requested read-out: log10 of MIC. Entry: COc1cnc(C(=O)Nc2ccc(C#N)cc2C(=O)O)cn1
Output: 0.90

Input: For COCCn1c(C(=O)Nc2ccc(Br)cc2C(=O)O)cc2ccccc21 , what is its reported log10 of MIC?
Output: 1.20

Input: Quick one: log10 of MIC of N#Cc1ccc(NC(=O)c2cnc(CCc3ccccc3)cn2)c(C(=O)O)c1 ?
Output: 1.20

Input: Reported log10 of MIC for Cc1sc(C(=O)Nc2ccc(C#N)cc2C(=O)O)cc1S(=O)(=O)N1CCCC1CN1CCCC1 (stereo not shown) : what is it?
Output: 2.11

Input: What log10 of MIC value was documented for this compound, N#Cc1ccc(NC(=O)c2n[nH]c3ccccc23)c(C(=O)O)c1 ?
Output: 1.20

Input: Fill blank: measured log10 of MIC of the compound N#Cc1ccc(NC(=O)c2noc3ccc(-c4ccc(C(=O)N5CCOCC5)cc4)cc23)c(C(=O)O)c1 is ____.
Output: -0.60

Input: Could you share which log10 of MIC value was measured for Cc1sc(C(=O)Nc2ccc(C#N)cc2C(=O)O)cc1S(=O)(=O)N1CCC(O)(c2ccc(Br)cc2)CC1 ?
Output: 1.51

Input: Consider the compound shown here: N#Cc1ccc(NC(=O)c2cc3cccc(N4C(=O)c5ccccc5C4=O)c3[nH]2)c(C(=O)O)c1 What is its recorded log10 of MIC?
Output: 0.90

###

- Test system: SAUR 9218
- ASSAY_TEXT: MIC Test Method, standard agar dilution
- Assay type: cell-based
- EXPERIMENTAL_CONDITIONS: agar dilution, Mueller Hinton agar, incubated overnight at 35° C.; lowest concentration that inhibits visible growth; read-out: SAUR 9218 MIC
- Description: The in vitro MiCs of test compounds were determined by a standard agar dilution method. A stock drug solution of each analog was prepared in the preferred solvent, usually DMSO:H2O (1:3). Serial 2-fold dilutions of each sample are made using 1.0 ml aliquots of sterile distil]ed water. […] Following incubation the Minimum Inhibitory Concentration (MIC μg/ml), the lowest concentration of drug that inhibits visible growth of the organism, was read and recorded.
PARAMETER_MEASURED: log10 MIC (log10 of the value in µg/mL)
On a log10 scale: recorded MIC, unit µg/mL.

Input: Please look up its log10 MIC: CCCCCSc1ccc(C(=O)Nc2ccc(C#N)cc2C(=O)O)nn1
Output: -1.82

Input: Any idea what its log10 MIC is? The compound is CCOP(=O)(Cc1ccc(NS(=O)(=O)c2cc(C(=O)Nc3ccc(Br)cc3C(=O)O)sc2C)cc1)OCC
Output: 1.81

Input: Endpoint output: log10 MIC of COc1ccc(CNc2cnc(C(=O)Nc3ccc(N)cc3C(=O)O)cn2)cc1 . Value?
Output: -0.60

Input: Look at this compound and give its reported log10 MIC. O=C(Nc1ccc(Br)cc1C(=O)O)c1cc(SCc2ccccc2)on1
Output: -0.90

Input: Dear colleague, I am looking for the recorded log10 MIC of the following compound: N#Cc1ccc(NC(=O)c2cncc(-c3cccc(C(F)(F)F)c3)c2)c(C(=O)O)c1
Output: 1.20

Input: Item under review: CCCCn1c(C(=O)Nc2ccc(Cl)cc2C(=O)O)cc2ccccc21 . Reported log10 MIC?
Output: 0.60

Input: If you can, please state the reported log10 MIC value of N#Cc1cccc(-c2cnc(C(=O)Nc3ccc(Br)cc3C(=O)O)o2)c1 .
Output: 0.60

Input: Value lookup for log10 MIC; key = COc1ccc(CC(=O)Nc2cccc3cc(C(=O)Nc4ccc(C#N)cc4C(=O)O)[nH]c23)cc1
Output: -0.60

Input: # query: log10 MIC of entry CCN(C(C)=O)c1ccc2onc(C(=O)Nc3ccc(C#N)cc3C(=O)O)c2c1
Output: -0.60

Input: Quick one: log10 MIC for CCSc1ccc(C(=O)Nc2ccc(C#N)cc2C(=O)O)cn1.Cl ?
Output: -0.30

Input: Give its log10 MIC value. Item: N#Cc1ccc(NC(=O)c2cc3cccc4c3n2CC/C4=N\Oc2ccccc2)c(C(=O)O)c1
Output: 0.30

Input: Fill in the blank: the reported log10 MIC of CCCCSc1cnc(C(=O)Nc2ccc(Br)cc2C(=O)O)cn1 is ____.
Output: 0.00

Input: Look up log10 MIC: N#Cc1ccc(NC(=O)c2cc3cccc(NC(=O)Cc4ccc5ccccc5c4)c3[nH]2)c(C(=O)O)c1
Output: -0.60

###

- Tested on: SAUR 9218
- ASSAY_TEXT: MIC Test Method, standard agar dilution
- Assay type: cell-based
- EXPERIMENTAL_CONDITIONS: agar dilution, Mueller Hinton agar, incubated overnight at 35° C.; lowest concentration that inhibits visible growth; read-out: SAUR 9218 MIC
PARAMETER_MEASURED: MIC (µg/mL)
Express your answer in µg/mL, writing the number without its unit.

Input: Reported MIC for CC(C)Cn1c(C(=O)Nc2ccc(Cl)cc2C(=O)O)cc2ccccc21 : what is it?
Output: 2

Input: I am curious: what MIC value has been reported for CN(c1ccc(Cl)cc1)S(=O)(=O)c1ccc(C(=O)Nc2ccc(Br)cc2C(=O)O)o1 ?
Output: 16

Input: Quick one: MIC of Cn1c(C(=O)Nc2ccc(C#N)cc2C(=O)O)cc2ccc(OCC3CC3)cc21 ?
Output: 0.25

###

- System: SAUR 9218
- ASSAY_TEXT: MIC Test Method, standard agar dilution
- Format: cell-based
- EXPERIMENTAL_CONDITIONS: agar dilution, Mueller Hinton agar, incubated overnight at 35° C.; lowest concentration that inhibits visible growth; read-out: SAUR 9218 MIC
PARAMETER_MEASURED: MIC

Input: Hi! What's the reported MIC for Cc1cnc(C(=O)Nc2ccc(Br)cc2C(=O)O)cn1 on SAUR 9218?
Output: 128 µg/mL

Input: Request: MIC, test system SAUR 9218, entry Cc1ccccc1-c1ccc2c(C(=O)Nc3ccc(C#N)cc3C(=O)O)noc2c1
Output: 0.06 µg/mL

Input: Provide value of MIC for this record tested with SAUR 9218: Cl.Cn1c(C(=O)Nc2ccc(C#N)cc2C(=O)O)cc2cccc(OCC(O)Cn3ccnc3)c21 (stereo not shown)
Output: 0.5 µg/mL

Input: What MIC appears in the records for this compound with SAUR 9218? Cn1c(C(=O)Nc2ccc(C#N)cc2C(=O)O)cc2ccc(NS(=O)(=O)c3cccc4cccnc34)cc21
Output: 1 µg/mL

###

- System: SAUR 9218
- ASSAY_TEXT: MIC Test Method, standard agar dilution
- Format: cell-based
- EXPERIMENTAL_CONDITIONS: agar dilution, Mueller Hinton agar, incubated overnight at 35° C.; lowest concentration that inhibits visible growth; read-out: SAUR 9218 MIC
Kindly state log10 MIC for each of the entries shown.
Values below are the log10 of the recorded MIC, with µg/mL as the unit.

Input: Entry CS(=O)(=O)N(c1ccc2onc(C(=O)Nc3ccc(C#N)cc3C(=O)O)c2c1)S(C)(=O)=O : reported log10 MIC = ?
Output: -0.90

Input: I have this molecule here, COc1cccc(-c2cnc(C(=O)Nc3ccc(Br)cc3C(=O)O)o2)c1 , and I need its recorded log10 MIC.
Output: 0.00

Input: What does the record list as log10 MIC for O=C(Nc1ccc(Br)cc1C(=O)O)c1ncc(-c2ccc(F)cc2)o1 ?
Output: 0.30

Input: Using the record for Cc1c(S(=O)(=O)N2CCN(c3cccc(C(F)(F)F)c3)CC2)csc1C(=O)Nc1ccc(Br)cc1C(=O)O , report its log10 MIC.
Output: 1.20

Input: Quick one: log10 MIC for N#Cc1ccc(NC(=O)c2noc3ccc(NC(=O)C4CCC4)cc23)c(C(=O)O)c1 ?
Output: 0.30

Input: Return reported log10 MIC; argument: Cn1cccc1-c1cnc(C(=O)Nc2ccc(Br)cc2C(=O)O)o1
Output: 0.30

Input: Look up log10 MIC: N#Cc1ccc(NC(=O)c2ccc(N3CCOCC3)nc2)c(C(=O)O)c1
Output: 1.81

Input: What value of measured log10 MIC is listed for CN(c1ccc(Cl)cc1)S(=O)(=O)c1cc(C(=O)Nc2ccc(Br)cc2C(=O)O)cs1 [drawing 1603] ?
Output: 0.60

Input: Which log10 MIC value belongs to CC(C)(C)c1cc(C(=O)Nc2ccc(C#N)cc2C(=O)O)no1 ?
Output: 0.00

Input: # lookup: log10 MIC of Cc1sc(C(=O)Nc2ccc(C#N)cc2C(=O)O)cc1S(=O)(=O)N1CCC(O)CC1
Output: 1.20

Input: Item Cc1c(S(=O)(=O)Nc2ccc3c(c2)OCCO3)csc1C(=O)Nc1ccc(Br)cc1C(=O)O has what recorded log10 MIC?
Output: 1.20

Input: May I ask what log10 MIC has been recorded for CCOCCOCCOc1ccccc1-c1cc(C(=O)Nc2ccc(C#N)cc2C(=O)O)no1 ?
Output: -0.30
